FYI, the data here is from patent US20250313612A1.

Let's look at some binders and their measured Neut IC50 subtype B.
Target entity: RSV F protein of recombinant mKate-RSV, subtype B (18537) (Respiratory syncytial virus subtype B …, UniProt P13843 26-574)
Test summary: cell-based or functional assay

Binder: ADI-14461 (antibody, V domains shown, full-length IgG (yeast-expressed); also called Antibody Number 24; Ab# 24) VH: EVQLVESGGGVVQPGRSLRLSCAASGFTFSDHAMYWVRQAPGKGLEWVALISFDGRNIYYADSVKGRFTISRDNSKNTLYLQMNSLRAEDTAVYYCARDQWLVPDYWGQGTLVTVSS VL: LPVLTQPASVSGSPGQSITISCTGTSSDVGGYNYVSWYQQHPGNAPKLMIYEVSKRPSGVPDRFSGFKSGNTASLTVSGLQAEDEADYYCSSYAGSNSVFGTGTKLTVL
Neut IC50 subtype B: 0.152 µg/mL
--
Binder: ADI-14451 (antibody, V domains shown) VH: EVQLVESGAEVRKPGASVKVSCKASGYIFINYYIHWVRQAPGQGLEWMGWINPNSGASNHAQTFEGRITMTTDTSSNTAYMELSRLREDDTAVYYCARSQQLLVITDYSLDYWGLGTLVTVSS VL: SSELTQDPAVSVALGQTVRITCHGDTLRNYYPAWYQQKPGQAPVLVVSDRNTRPSGIPDRFSVSTSGNTASLTITGAQAEDEGDYYCNCRDSSGHRLVFGGGTKLTVL
Neut IC50 subtype B: 0.06 µg/mL
--
Binder: ADI-14444 (antibody, V domains shown) VH: QVQLVQSGPDVKRPGASVRVSCKASGYTFSDYYMHWVRQAPGQGLEWLAWVNPSTGATHYSESFRGSMVVQRDTSTDTAYLELSSLKSDDTAVYYCARIGSNEIWGQGTMVTVSS VL: QSALTQPASVSGSPGQSITISCAGTSSDIGGWNYVSWYQQYPGQVPKLILYEVTDRPSGVSHRFSGSKSGNRAFLTITGLRAEDEADYYCCSFTSSGSRVFGGGTKVTVL
Neut IC50 subtype B: > 10 µg/mL
--
Binder: ADI-14522 (antibody, V domains shown, full-length IgG (yeast-expressed); also called Antibody Number 82; Ab# 82) VH: EVQLVESGAEVKKPGDSVKVSCRASGYSFTGPFLHWVRQAPGQRLEHMGWINPRSGETKYAQSFLGRVTMTRDTSIRSATLELSSLRSDDTAVYYCARDLYSSGWLDNWGQGTLVTVSS VL: ETTLTQSPATLSVSPGERATLSCRASQGLSSNLAWYQHKPGQAPRLLVYGVATRATGVPARFSGSGSGTEFTLTISSLQSDDFALYYCHQYNDWPYTFGQGTKLEIK
Neut IC50 subtype B: 7.29 µg/mL
--
Binder: ADI-14457 (antibody, V domains shown, full-length IgG (yeast-expressed); also called Antibody Number 20; Ab# 20) VH: QVTLKESGPALVRPKQTLTLTCSFSGFSLDTQRTGVNWIRQSPGKALEWLARIDWDGNIYSSTSVRTKLSISKGTSKNQVVLTMTDVDPVDTATYYCARTLYYTSGGYYLNLFDYWGQGTLVTVSS VL: EIVMTQSPPSLSASVGDRVTITCRASQTIPSYVNWYQQISGKAPRLLIYAASLLQSGVPSRFSGSGSGTEFSLTISGLRPEDFGTYYCQQSYSSTPTFGQGTKVEIK
Neut IC50 subtype B: 0.251 µg/mL
